molecular target: EGFR (Homo sapiens (Human), UniProt P00533); experiment: ErbB Enzyme Assay (HTRF KinEASE-TK), Assay 3; format: biochemical; settings: EGFR enzyme
Sequence (P00533 25-1210): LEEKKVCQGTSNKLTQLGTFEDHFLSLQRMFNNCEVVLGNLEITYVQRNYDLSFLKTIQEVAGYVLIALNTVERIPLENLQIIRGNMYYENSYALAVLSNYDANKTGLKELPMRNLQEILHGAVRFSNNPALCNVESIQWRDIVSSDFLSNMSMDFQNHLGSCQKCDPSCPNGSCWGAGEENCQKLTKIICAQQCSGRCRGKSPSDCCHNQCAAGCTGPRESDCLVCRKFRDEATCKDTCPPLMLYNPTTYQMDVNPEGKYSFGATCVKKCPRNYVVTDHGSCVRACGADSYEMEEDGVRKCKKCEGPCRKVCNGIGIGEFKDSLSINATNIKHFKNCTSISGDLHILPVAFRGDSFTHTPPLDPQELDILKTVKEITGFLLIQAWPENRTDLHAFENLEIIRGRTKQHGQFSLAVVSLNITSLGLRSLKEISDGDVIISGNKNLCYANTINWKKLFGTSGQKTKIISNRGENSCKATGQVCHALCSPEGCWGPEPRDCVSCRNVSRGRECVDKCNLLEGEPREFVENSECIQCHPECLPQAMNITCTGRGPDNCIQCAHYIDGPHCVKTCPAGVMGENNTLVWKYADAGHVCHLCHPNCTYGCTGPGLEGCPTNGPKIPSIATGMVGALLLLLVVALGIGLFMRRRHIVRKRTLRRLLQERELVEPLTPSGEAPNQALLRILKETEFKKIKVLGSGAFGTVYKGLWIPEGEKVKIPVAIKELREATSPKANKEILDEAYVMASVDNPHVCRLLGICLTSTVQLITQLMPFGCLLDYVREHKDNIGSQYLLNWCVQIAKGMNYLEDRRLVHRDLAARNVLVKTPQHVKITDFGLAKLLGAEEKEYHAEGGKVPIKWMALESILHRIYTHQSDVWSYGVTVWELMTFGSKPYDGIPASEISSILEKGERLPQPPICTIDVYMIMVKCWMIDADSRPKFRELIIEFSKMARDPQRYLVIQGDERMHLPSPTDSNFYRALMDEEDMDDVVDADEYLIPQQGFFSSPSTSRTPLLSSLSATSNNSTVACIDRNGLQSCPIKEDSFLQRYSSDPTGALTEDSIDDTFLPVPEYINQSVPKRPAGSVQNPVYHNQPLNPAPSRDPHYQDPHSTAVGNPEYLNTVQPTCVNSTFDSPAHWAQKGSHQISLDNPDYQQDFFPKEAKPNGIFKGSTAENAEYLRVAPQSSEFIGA
pIC50: −log10 of the molar value.
OBSERVABLE: pIC50

[
  {
    "COMPOUND": "C=CC(=O)N1C[C@H]2C[C@@H]1CN(c1ccc3ncnc(Nc4ccc(Oc5ccc6c(c5)ncn6C)c(C)c4F)c3n1)C2",
    "pIC50": 5.22
  },
  {
    "COMPOUND": "CC#CC(=O)N1CC[C@@H]2C[C@H]1CN2c1ccc2ncnc(Nc3ccc(Oc4ccn5ncnc5c4)c(C)c3F)c2n1",
    "pIC50": 5.17
  },
  {
    "COMPOUND": "C=CC(=O)N1C[C@H]2C[C@@H]1CN2c1ccc2ncnc(Nc3ccc(Oc4ccn5ncnc5c4)c(Cl)c3F)c2n1",
    "pIC50": 5.61
  },
  {
    "COMPOUND": "C=CC(=O)N1C[C@H]2CC[C@@H]1C[C@@H]2c1ccc2ncnc(Nc3ccc(Oc4ccn5ncnc5c4)c(C)c3F)c2n1 (racemic) [Example 217]",
    "pIC50": 5.83
  },
  {
    "COMPOUND": "C=CC(=O)N1CCCCC(c2ccc3ncnc(Nc4ccc(Oc5ccc6c(c5)ncn6C)c(C)c4)c3n2)C1 (stereo not shown)",
    "pIC50": 5.90
  }
]

a. C=CC(=O)N1CC[C@@H]2C[C@@H](c3ccc4ncnc(Nc5cc(C)c(Oc6ccn7ncnc7c6)cc5F)c4n3)C[C@@H]21 (single isomer, unassigned)
b. C=CC(=O)N1CCC(Oc2nc3c(Nc4ccc(Oc5ccc6cn(C)nc6c5)c(C)c4F)ncnc3cc2OC)CC1
Which entry has a larger number for pIC50, a or b ? Response format: the label of the selected entry. b

a. C=CC(=O)N1CCC(Sc2nc3c(Nc4ccc(Oc5ccc6c(c5)ncn6C)c(C)c4)ncnc3cc2OC)CC1
b. C=CC(=O)N1CCN(c2nc3c(Nc4ccc(Oc5ccn6ncnc6c5)c(C)c4F)ncnc3cc2Cl)C[C@@H]1C
Which entry has a larger number for pIC50, a or b ? Response format: the label of the selected entry. a
(a: 6.34, b: 5.17)
